- ASSAY_REMARKS: Biomimetic HPLC lipophilicity determination, IAM column
- Assay type: physicochemical
- CONDITION: ACN-phosphate buffer pH 7.4
ASSAY_ENDPOINT: s (slope of Soczewiński-Wachtmeister equation)
Answer as a number with no unit attached.

Solved cases below.
{"MOLECULE": "CC(=O)OC1C(O)COC(OC2CCC34CC35CCC3(C)C(C6(C)CCC(C(C)(C)O)O6)C(O)CC3(C)C5CC(OC3OC(CO)C(O)C(O)C3O)C4C2(C)C)C1OC(C)=O (stereo not shown) [A I, Astragaloside I]", "VALUE": 6.040}
{"MOLECULE": "CC(C)(O)[C@@H]1CC[C@](C)([C@H]2[C@@H](O)C[C@@]3(C)[C@@H]4C[C@H](O)[C@H]5C(C)(C)[C@@H](O[C@@H]6OC[C@@H](O)[C@H](O)[C@H]6O[C@@H]6O[C@H](CO)[C@@H](O)[C@H](O)[C@H]6O)CC[C@@]56C[C@@]46CC[C@]23C)O1 [A III, Astragaloside III]", "VALUE": 4.165}

input: Data request, read-out s (slope of Soczewiński-Wachtmeister equation), for CC(C)(O)[C@@H]1CC[C@](C)([C@H]2[C@@H](O)C[C@@]3(C)[C@@H]4C[C@H](O[C@@H]5O[C@H](CO)[C@@H](O)[C@H](O)[C@H]5O)[C@H]5C(C)(C)[C@@H](O[C@@H]6OC[C@@H](O)[C@H](O)[C@H]6O)CC[C@@]56C[C@@]46CC[C@]23C)O1 [A IV, Astragaloside IV]
output: 3.965

input: May I ask what s (slope of Soczewiński-Wachtmeister equation) has been recorded for CC(=O)O[C@H]1[C@H](O[C@H]2CC[C@]34C[C@]35CC[C@]3(C)[C@@H]([C@@]6(C)CC[C@@H](C(C)(C)O)O6)[C@@H](O)C[C@@]3(C)[C@@H]5C[C@H](O[C@@H]3O[C@H](CO)[C@@H](O)[C@H](O)[C@H]3O)[C@H]4C2(C)C)OC[C@@H](O)[C@@H]1O [A II, Astragaloside II] ?
output: 4.715
